TEST_SYSTEM: photosystem II (PS II) (Spinacia oleracea, UniProt P69560)
Construct: the chloroplasts were osmotically ruptured and the thylakoid membranes were then obtained by centrifugation; from tissue; host or cells: spinach leaves (thylakoid membrane preparation)
EXPERIMENT_NOTES: Activity determination of photosystem II (PS II) in thylakoid membranes, DCPIP reduction
Type: biochemical
SETUP_CONDITIONS: spinach thylakoid membranes, DCPIP 120 μM, 10 min at 22° C. with illumination
METRIC: pI50
Give bare numbers.

Recorded results for 5 compounds are shown here.
COMPOUND	pI50
CC1=C(Br)C(=O)N(C2=NN(C)C(c3ccccc3)C2)C1O (stereo not drawn) [I.8-1126]	5.1
CC1=C(Br)C(=O)N(C2=NN(c3ccccc3)CC2)C1O (stereo not drawn) [I.8-621]	5.3
CC1=C(Br)C(=O)N(C2=NN(C)C(c3ccc(Cl)cc3)C2)C1O (stereo not drawn) [I.8-1351]	5.7
CC1=C(C)C(O)N(C2=NN(Cc3ccccc3)C(C)(C)C2)C1=O (stereo not drawn) [I.2-217]	5.4
CC1=C(Cl)C(=O)N(C2=NN(C)C(c3ccc(Cl)cc3)C2)C1O (stereo not drawn) [I.3-1351]	5.5

Shifting focus to the compound that follows.
## Task So what does the record say about pI50 for CC1=C(Cl)C(=O)N(C2=NN(c3ccccc3)C(C)C2)C1O (stereo not drawn) [I.3-321] ?
## Result 5.4

* * *

System: Stellaria media
EXPERIMENT_NOTES: Pre-emergence herbicidal action, STEME
Format: in vivo
SETUP_CONDITIONS: application rate 1280 g/ha, scored visually after about 3 weeks
I'd appreciate it if you could supply Pre-emergence herbicidal action STEME, damage of the harmful plant values for the items below.
Answers are plain numbers, in %.

Some compounds with recorded Pre-emergence herbicidal action STEME, damage of the harmful plant:
COMPOUND	REPORTED_MEASUREMENT
CCC(=O)OC1C(C)=C(C)C(=O)N1C1=NN(c2ccccc2)C(C(F)(F)F)C1 (stereo not drawn)	80
CCC(=O)OC1C(C)=C(C)C(=O)N1C1=NN(c2ccccc2)CC1 (stereo not drawn)	0
CCC(=O)OC1C(C)=C(Cl)C(=O)N1C1=NN(C)C(c2ccccc2)C1 (stereo not drawn)	20

Quick request: Pre-emergence herbicidal action STEME, damage of the harmful plant for each listed item, please.
1. CC1=C(C)C(O)N(C2=NN(c3ccccn3)C(C)(C)C2)C1=O (stereo not drawn)
2. CCC(=O)OC1C(C)=C(C)C(=O)N1C1=NN(c2ccccn2)C(C)(C)C1 (stereo not drawn)
3. CC1=C(C)C(O)N(C2=NN(c3ccccc3)C(C(F)(F)F)C2)C1=O (stereo not drawn)

## Result
100
100
100

* * *

System: Abutilon theophrasti
EXPERIMENT_NOTES: Pre-emergence herbicidal action, ABUTH
Type: in vivo
SETUP_CONDITIONS: application rate 1280 g/ha, scored visually after about 3 weeks
Give Pre-emergence herbicidal action ABUTH, damage of the harmful plant for every item shown.
Give bare numbers, in %.

Here are 5 compounds together with their reported answers.
COMPOUND	TEST_SYSTEM	UNIT_SYMBOL	REPORTED_MEASUREMENT
CCC(=O)OC1C(C)=C(C)C(=O)N1C1=NN(c2ccccc2)C(C(F)(F)F)C1 (stereo not drawn)	Abutilon theophrasti	%	0
CC1=C(C)C(O)N(C2=NN(c3ccccc3)C(C(F)(F)F)C2)C1=O (stereo not drawn)	Abutilon theophrasti	%	0
CCC(=O)OC1C(C)=C(C)C(=O)N1C1=NN(c2ccccc2)CC1 (stereo not drawn)	Abutilon theophrasti	%	0
CCC(=O)OC1C(C)=C(Cl)C(=O)N1C1=NN(C)C(c2ccccc2)C1 (stereo not drawn)	Abutilon theophrasti	%	0
CC1=C(C)C(O)N(C2=NN(c3ccccn3)C(C)(C)C2)C1=O (stereo not drawn)	Abutilon theophrasti	%	70

## Task Lookup: Pre-emergence herbicidal action ABUTH, damage of the harmful plant / Abutilon theophrasti / CCC(=O)OC1C(C)=C(C)C(=O)N1C1=NN(c2ccccn2)C(C)(C)C1 (stereo not drawn)
## Result 0

Where these numbers come from: patent US20190166840A1
